Below is a list of entries, each paired with its recorded log10(EC50) value.
study_system: human GPR119 (Homo sapiens (Human))
protocol_notes: AlphaScreen cAMP assay in MIN6 cells stably transfected with human GPR119
experimental_conditions: Min-6/hGPR119 cells, 45 min incubation at room temperature
Give log10 of EC50, with EC50 taken in nM.

Please review the entries below; each comes with its answer.
                                   compound  quantitative_result
0  CC(C)(C)OC(=O)N1CCC(N(C(=O)c2ccc(-c3ccnnc3)cc2)C2CC2)CC1 [Example 23]                 2.37
1  CC(C)(C)OC(=O)N1CCC(N(C(=O)c2ccc(-c3cncnc3)cc2)C2CC2)CC1 [Example 69]                 2.20
2  CC(C)(C)OC(=O)N1CCC(N(C(=O)c2ccc(-c3ccco3)cc2)C2CC2)CC1 [Example 65]                 2.82
3  COc1ccc(-c2ccc(C(=O)N(C3CC3)C3CCN(C(=O)OC(C)(C)C)CC3)cc2)cc1 [Example 86]                 2.60
4  CC1(OC(=O)N2CCC(N(C(=O)c3ccc(-c4ccc(S(C)(=O)=O)cn4)cc3)C3CC3)CC2)CC1 [Example 19]                 3.25
5  CC(C)(C)COC(=O)N1CCC(N(C(=O)c2ccc(-c3cnco3)cc2)C2CC2)CC1 [Example 121]                 1.65
6  COC1CN(C(=O)OC(C)(C)C)CCC1N(C(=O)c1ccc(-c2cnco2)cc1)C1CC1 (centres unmarked) [Example 45]                 1.18

Okay, next one:
INPUT: Look up log10(EC50): CC(C)(C)OC(=O)N1CCC(N(C(=O)c2ccc(-n3cccn3)cc2)C2CC2)CC1 [Example 71]
OUTPUT: 2.80

====

study_system: human GPR119 (Homo sapiens (Human), UniProt Q8TDV5)
Sequence (Q8TDV5 whole entry): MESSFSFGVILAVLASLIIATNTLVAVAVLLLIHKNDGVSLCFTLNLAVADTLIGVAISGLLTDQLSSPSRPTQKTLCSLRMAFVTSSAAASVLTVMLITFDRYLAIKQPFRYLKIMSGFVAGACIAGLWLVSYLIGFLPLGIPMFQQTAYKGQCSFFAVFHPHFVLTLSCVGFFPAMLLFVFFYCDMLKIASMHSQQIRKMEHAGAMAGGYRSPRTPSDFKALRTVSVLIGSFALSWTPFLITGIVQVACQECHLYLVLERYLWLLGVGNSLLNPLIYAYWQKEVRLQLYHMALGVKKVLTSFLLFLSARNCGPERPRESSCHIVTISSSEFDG
protocol_notes: AlphaScreen cAMP assay in MIN6 cells stably transfected with human GPR119
experimental_conditions: Min-6/hGPR119 cells, 45 min incubation at room temperature
Description: The compounds of formula I according to the invention modulate the activity of the G-protein-coupled receptor GPR119. The effect of the compounds on the activation of GPR119 and on the stimulation of intracellular cAMP concentration is determined using the AlphaScreen cAMP Assay Kit (Cat. No. #6760625R) made by PerkinElmer. MIN6 cells [Miyazaki J et al. Endocrinology. 1990 July; 127(1):126-32] are stably transfected with an expression vector for human GPR119 cDNA (Acc. No. NP_848566). […]
# satisfied = EC50 below 80 nM (exclusive); not satisfied = EC50 at/above 80 nM

Worked set:
>>> print(df.to_string())
                                   compound  class_assignment
0  CC(C)OC(=O)N1CCC(N(C(=O)c2ccc(-c3cnco3)cc2)C2CC2)CC1         satisfied
1  CC(C)(C)OC(=O)N1CCC(N(C(=O)c2ccc(-c3cnco3)c(F)c2)C2CC2)CC1         satisfied
2  CC(C)(C)OC(=O)N1CCC(N(C(=O)c2ccc(-c3ccc(C(=O)O)nc3)cc2)C2CC2)CC1     not satisfied
3  CC(C)(C)OC(=O)N1CCC(N(C(=O)c2ccc(-c3ccc(C#N)cc3)cc2)C2CC2)CC1     not satisfied
4  O=C(OC1CCOCC1)N1CCC(N(C(=O)c2ccc(-c3cnco3)cc2)C2CC2)CC1     not satisfied

INPUT: Problem: For the compound CC(C)(C)OC(=O)N1CCC(N(C(=O)c2ccc(-n3ccnc3)cc2)C2CC2)CC1 , is EC50 under 80 nM?
OUTPUT: not satisfied

INPUT: Queued: CC(C)(C)OC(=O)N1CCC(N(C(=O)c2ccc(-c3nccs3)cc2)C2CC2)CC1
OUTPUT: not satisfied

INPUT: Input CC(C)(C)OC(=O)N1CCC(N(C(=O)c2ccc(-c3cocn3)cc2)C2CC2)CC1
OUTPUT: not satisfied

INPUT: Note, next up: CC(C)(C)OC(=O)N1CCC(N(C(=O)c2ccc(-n3cnc(-c4ccccc4)c3)cc2)C2CC2)CC1
OUTPUT: not satisfied

INPUT: Try this compound next: O=C(Oc1ccc(F)cc1)N1CCC(N(C(=O)c2ccc(-c3cnco3)cc2)C2CC2)CC1
OUTPUT: not satisfied

INPUT: Cool, now CCOC(=O)c1c(C)nn(-c2ccc(C(=O)N(C3CC3)C3CCN(C(=O)OC(C)(C)C)CC3)cc2)c1C
OUTPUT: not satisfied

INPUT: One more compound: CC1CC(N(C(=O)c2ccc(-c3cnco3)cc2)C2CC2)CCN1C(=O)OC(C)(C)C (stereo not shown)
OUTPUT: not satisfied

INPUT: Moving on to Cc1noc(-c2ccc(C(=O)N(C3CC3)C3CCN(C(=O)OC(C)(C)C)CC3)cc2)n1
OUTPUT: not satisfied

INPUT: What do we get for CC(C)(C)OC(=O)N1CC[C@H](N(C(=O)c2ccc(-c3cnco3)cc2)C2CC2)[C@H](F)C1 (single isomer, unassigned) ?
OUTPUT: satisfied

INPUT: Next compound up: CC1(OC(=O)N2CCC(N(C(=O)c3ccc(-c4ccncc4C#N)cc3)C3CC3)CC2)CC1
OUTPUT: satisfied

====

study_system: UniProt Q8TDV5
protocol_notes: AlphaScreen cAMP assay in MIN6 cells stably transfected with human GPR119
experimental_conditions: Min-6/hGPR119 cells, 45 min incubation at room temperature
# EC50 values compiled below
Numeric only. Scale: nM

Solved cases below.
>>> df
                                   molecule  unit_info  quantitative_result
0  CC(C)(C)OC(=O)N1CCC(N(C(=O)c2ccc(-n3cccc3)cc2)C2CC2)CC1 [Example 64]         nM                  278
1  Cc1nc(-c2ccccc2)cn1-c1ccc(C(=O)N(C2CC2)C2CCN(C(=O)OC(C)(C)C)CC2)cc1 [Example 84]         nM                   96
2  CC(C)(C)OC(=O)N1CCC(N(C(=O)c2ccc(-c3ccoc3)cc2)C2CC2)CC1 [Example 90]         nM                  228
3  CC(C)(C)OC(=O)N1CCC(N(C(=O)c2ccc(-c3cnco3)cc2)C2CC2)CC1 [Example 53]         nM                   33
4  CN(C)Cc1ccc(-c2ccc(C(=O)N(C3CC3)C3CCN(C(=O)OC(C)(C)C)CC3)cc2)cc1 [Example 112]         nM                 1740
5  Cc1nc(-c2ccc(C(=O)N(C3CC3)C3CCN(C(=O)OC(C)(C)C)CC3)cc2)no1 [Example 67]         nM                  316

Next, consider the following molecule.
INPUT: Look up EC50 for this molecule: CC(C)(C)OC(=O)N1CC[C@@H](N(C(=O)c2ccc(-c3cnco3)cc2)C2CC2)[C@H](F)C1 (single isomer, unassigned) [Example 39]
OUTPUT: 634

====

study_system: UniProt Q8TDV5
protocol_notes: AlphaScreen cAMP assay in MIN6 cells stably transfected with human GPR119
experimental_conditions: Min-6/hGPR119 cells, 45 min incubation at room temperature
Mark condition met for EC50 under 80 nM, condition not met if at or over.

Some entries whose results are on file:
>>> df
                               entry_smiles   class_assignment
0  O=C(Oc1ccccc1)N1CCC(N(C(=O)c2ccc(-c3cnco3)cc2)C2CC2)CC1  condition not met
1  C=CCOC(=O)N1CCC(N(C(=O)c2ccc(-c3cnco3)cc2)C2CC2)CC1  condition not met
2  CC(C)(C)OC(=O)N1CCC(N(C(=O)c2ccc(-c3cccs3)cc2)C2CC2)CC1  condition not met

INPUT: Say whether its EC50 is strictly beneath 80 nM. Entry: CC(C)(C)OC(=O)N1CCC(N(C(=O)c2ccc(-c3ccc(CO)cc3)cc2)C2CC2)CC1
OUTPUT: condition met

INPUT: Param item: O=C(OC1CCCC1)N1CCC(N(C(=O)c2ccc(-c3cnco3)cc2)C2CC2)CC1
OUTPUT: condition met

INPUT: Proceed to Cc1ccc(-c2ccc(C(=O)N(C3CC3)C3CCN(C(=O)OC(C)(C)C)CC3)cc2)nn1
OUTPUT: condition met

INPUT: Item: CC(C)(C)OC(=O)N1CCC(N(C(=O)c2ccc(-n3cnc(-c4ccccc4)c3)c(Cl)c2)C2CC2)CC1
OUTPUT: condition not met

INPUT: Field entry: Cc1ncc(-c2ccc(C(=O)N(C3CC3)C3CCN(C(=O)OC(C)(C)C)CC3)cc2)o1
OUTPUT: condition not met
